Target: SLC43A3 (equilibrative nucleobase transporter 1, ENBT1) (Homo sapiens)
Sequence (Q8NBI5 1-491): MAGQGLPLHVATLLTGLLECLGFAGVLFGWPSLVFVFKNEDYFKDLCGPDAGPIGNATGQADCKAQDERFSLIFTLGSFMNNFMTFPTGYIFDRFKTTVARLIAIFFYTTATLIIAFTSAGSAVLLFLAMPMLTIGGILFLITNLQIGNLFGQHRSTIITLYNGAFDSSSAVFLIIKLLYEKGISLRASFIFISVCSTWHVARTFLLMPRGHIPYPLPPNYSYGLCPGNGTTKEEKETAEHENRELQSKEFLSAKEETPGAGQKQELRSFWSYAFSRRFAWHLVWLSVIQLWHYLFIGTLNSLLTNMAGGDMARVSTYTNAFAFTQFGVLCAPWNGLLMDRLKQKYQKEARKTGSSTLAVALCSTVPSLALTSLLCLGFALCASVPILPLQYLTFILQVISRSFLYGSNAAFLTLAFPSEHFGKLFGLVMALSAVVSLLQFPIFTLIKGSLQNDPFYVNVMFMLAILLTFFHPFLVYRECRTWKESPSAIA
Experiment: inhibition of ENBT1-mediated [3H]hypoxanthine uptake; radiolabeled uptake (apparent Km […])
Assay type: cell-based
Parameters: full length, 491 amino acid residues, stably expressed in MDCKII cells
readout_kind: pIC50
Formally, pIC50 is defined as -log10 of the concentration c, with c in mol/L.

stdin: pIC50 lookup needed for `Nc1ncnc2nc[nH]c12` , thanks.
stdout: 4.89

Where do these numbers come from? They come from paper PMC4796657.
